# testMethodNotes: physchem
Positions of bridges follow the written chain, without caps; N, C: chain ends. Non-standard residues stand in square brackets, D forms with d. Residues, ends and D or L forms follow the SMILES beside them. R8 = C=CCCCCCC[C@@](C)(N)C(=O)O; Cba = N[C@@H](CC1CCC1)C(=O)O; S5 = C=CCCC[C@](C)(N)C(=O)O
measuredQuantity: EPSA (A^2)
Report the value in A^2 with no unit label.

// known answers, use as guide
CC(=O)N[C@@H](CCCCN=[N+]=[N-])C(=O)NCCC(=O)N[C@@H](CC(C)C)C(=O)N[C@@H](CCCCN)C(=O)N[C@@H](Cc1ccccc1)C(=O)N[C@]1(C)CCCCCCC=CCCC[C@@](C)(C(=O)N[C@@H](CO)C(=O)N[C@@H](C)C(=O)N[C@@H](C)C(N)=O)NC(=O)[C@H](CC2CCC2)NC(=O)[C@H](CCC(N)=O)NC(=O)[C@H](C)NC(=O)[C@H](Cc2c[nH]c3ccccc23)NC(=O)[C@H](Cc2ccc(O)cc2)NC(=O)[C@H](CCC(=O)O)NC1=O [MP-547, AZIDE-ATSP-7041 (T2K)] ... 229
CC(C)C[C@@H]1NC(=O)[C@H](C)NC(=O)[C@H](Cc2c[nH]c3ccccc23)NC(=O)[C@H](Cc2ccc(O)cc2)NC(=O)[C@H](CCC(=O)O)NC(=O)[C@](C)(NC(=O)[C@H](Cc2ccccc2)NC(=O)[C@H](CO)NC(=O)[C@@H](NC(=O)[C@H](CO)NC(=O)CNC(=O)[C@H](CO)NC(=O)[C@@H](N)CCCCN=[N+]=[N-])[C@@H](C)O)CCCCCCC=CCCC[C@@](C)(C(N)=O)NC(=O)[C@H](CC(C)C)NC1=O [MP-75496] ... 236

Exam item: I'd like to know its EPSA. The compound in question is CC(=O)N[C@@H](CCCCN=[N+]=[N-])C(=O)NCCC(=O)N[C@@H](CC(C)C)C(=O)N[C@H](C(=O)N[C@@H](Cc1ccccc1)C(=O)N[C@]1(C)CCCCCCC=CCCC[C@@](C)(C(=O)N[C@@H](CO)C(=O)N[C@@H](C)C(=O)N[C@@H](C)C(N)=O)NC(=O)[C@H](CC2CCC2)NC(=O)[C@H](CCC(N)=O)NC(=O)[C@H](CCC(=O)O)NC(=O)[C@H](Cc2c[nH]c3ccccc23)NC(=O)[C@H](Cc2ccc(O)cc2)NC(=O)[C@H](CCC(=O)O)NC1=O)[C@@H](C)O [MP-180]
Marked response: 235

Exam item: Now try CC(=O)N[C@@H](CCCCN=[N+]=[N-])C(=O)NCCC(=O)N[C@@H](CC(C)C)C(=O)N[C@@H](Cc1c[nH]cn1)C(=O)N[C@@H](Cc1ccccc1)C(=O)N[C@]1(C)CCCCCCC=CCCC[C@@](C)(C(=O)N[C@@H](CO)C(=O)N[C@@H](C)C(=O)N[C@@H](C)C(N)=O)NC(=O)[C@H](CC2CCC2)NC(=O)[C@H](CCC(N)=O)NC(=O)[C@H](C)NC(=O)[C@H](Cc2c[nH]c3ccccc23)NC(=O)[C@H](Cc2ccc(O)cc2)NC(=O)[C@H](CCC(=O)O)NC1=O [MP-174, AZIDE-ATSP-7041 (T2H)] .
Marked response: 225

Exam item: Now try CC(=O)N[C@@H](CCCCN=[N+]=[N-])C(=O)NCCC(=O)N[C@@H](CC(C)C)C(=O)N[C@H](C(=O)N[C@@H](Cc1ccccc1)C(=O)N[C@]1(C)CCCCCCC=CCCC[C@@](C)(C(=O)N[C@@H](CO)C(=O)N[C@@H](C)C(=O)N[C@@H](C)C(N)=O)NC(=O)[C@H](CC2CCC2)NC(=O)[C@H](CCC(=O)O)NC(=O)[C@H](C)NC(=O)[C@H](Cc2c[nH]c3ccccc23)NC(=O)[C@H](Cc2ccc(O)cc2)NC(=O)[C@H](CCC(=O)O)NC1=O)[C@@H](C)O [MP-181] .
Marked response: 249

Exam item: Now try CC(=O)N[C@@H](CCCCN=[N+]=[N-])C(=O)NCCC(=O)N[C@@H](CCCCN)C(=O)N[C@H](C(=O)N[C@@H](Cc1ccccc1)C(=O)N[C@]1(C)CCCCCCC=CCCC[C@@](C)(C(=O)N[C@@H](CO)C(=O)N[C@@H](C)C(=O)N[C@@H](C)C(N)=O)NC(=O)[C@H](CC2CCC2)NC(=O)[C@H](CCC(N)=O)NC(=O)[C@H](C)NC(=O)[C@H](Cc2c[nH]c3ccccc23)NC(=O)[C@H](Cc2ccc(O)cc2)NC(=O)[C@H](CCC(=O)O)NC1=O)[C@@H](C)O [MP-546, AZIDE-ATSP-7041 (L1K)] .
Marked response: 229

Exam item: Now try CC(=O)N[C@@H](CC(C)C)C(=O)N[C@H](C(=O)N[C@@H](Cc1ccccc1)C(=O)N[C@]1(C)CCCCCCC=CCCC[C@@](C)(C(=O)N[C@@H](CO)C(=O)N[C@@H](C)C(=O)N[C@@H](C)C(N)=O)NC(=O)[C@H](CC2CCC2)NC(=O)[C@H](CC(C)C)NC(=O)[C@H](CCC(N)=O)NC(=O)[C@H](Cc2c[nH]c3ccccc23)NC(=O)[C@H](Cc2ccc(O)cc2)NC(=O)[C@H](CCCNC(=N)N)NC1=O)[C@@H](C)O [MP-193] (Ac-LTF[R8]RYWQL[Cba][S5]SAA-NH2; staple 4-11) .
Marked response: 207

Exam item: Now try CC(=O)N[C@@H](CC(C)C)C(=O)N[C@H](C(=O)N[C@@H](Cc1ccccc1)C(=O)N[C@]1(C)CCCCCCC=CCCC[C@@](C)(C(=O)N[C@@H](CO)C(=O)N[C@@H](C)C(=O)N[C@@H](C)C(N)=O)NC(=O)[C@H](CC2CCC2)NC(=O)[C@H](Cc2c[nH]cn2)NC(=O)[C@H](CCC(N)=O)NC(=O)[C@H](Cc2c[nH]c3ccccc23)NC(=O)[C@H](Cc2ccc(O)cc2)NC(=O)[C@H](CCC(=O)O)NC1=O)[C@@H](C)O [MP-200, ATSP-7041 (L9H)] (Ac-LTF[R8]EYWQH[Cba][S5]SAA-NH2; staple 4-11) .
Marked response: 219

Exam item: Now try CC(=O)N[C@@H](CCCCN=[N+]=[N-])C(=O)NCCC(=O)N[C@@H](CC(C)C)C(=O)N[C@H](C(=O)N[C@@H](Cc1ccccc1)C(=O)N[C@]1(C)CCCCCCC=CCCC[C@@](C)(C(=O)N[C@@H](CO)C(=O)N[C@@H](C)C(=O)N[C@@H](C)C(N)=O)NC(=O)[C@H](CC2CCC2)NC(=O)[C@H](CCCCN)NC(=O)[C@H](C)NC(=O)[C@H](Cc2c[nH]c3ccccc23)NC(=O)[C@H](Cc2ccc(O)cc2)NC(=O)[C@H](CCC(=O)O)NC1=O)[C@@H](C)O [MP-550, AZIDE-ATSP-7041 (Q9K)] .
Marked response: 217

Exam item: Now try CC(=O)N[C@@H](CCCCN=[N+]=[N-])C(=O)NCCC(=O)N[C@@H](CC(C)C)C(=O)N[C@H](C(=O)N[C@@H](Cc1ccccc1)C(=O)N[C@]1(C)CCCCCCC=CCCC[C@@](C)(C(=O)NC(C)(C)C(=O)N[C@@H](C)C(=O)N[C@@H](C)C(N)=O)NC(=O)[C@H](CC2CCC2)NC(=O)[C@H](CCC(N)=O)NC(=O)[C@H](C)NC(=O)[C@H](Cc2c[nH]c3ccccc23)NC(=O)[C@H](Cc2ccc(O)cc2)NC(=O)[C@H](CCC(=O)O)NC1=O)[C@@H](C)O [MP-172] .
Marked response: 225

###

# System: HCT116 cells
# testMethodNotes: Lactate dehydrogenase (LDH) release assay
# Format: cell-based
# Experimental: HCT116 cells were stably transfected with a p53 responsive β-lactamase reporter and expanded in McCoy’s 5 A Medium with 10% fetal bovine serum (FBS), Blasticidin, and Penicillin/Streptomycin and then transferred to 1.5 ml freezing vials and stored under liquid nitrogen in growth media containing 5% DMSO. […] Lactate dehydrogenase release was detected using the CytoTox-ONE Homogenous Membrane Integrity Assay Kit (Promega), as per the manufacturer’s instructions. […]
Positions of bridges follow the written chain, without caps; N, C: chain ends. Non-standard residues stand in square brackets, D forms with d. Residues, ends and D or L forms follow the SMILES beside them. tBuAla = CC(C)(C)C[C@H](N)C(=O)O; R8 = C=CCCCCCC[C@@](C)(N)C(=O)O; S5 = C=CCCC[C@](C)(N)C(=O)O
Response field label takes fulfilled when LDH: Cytotoxicity assay % Effect is strictly below 20% and not fulfilled in all other cases.

Sample answers from the record:
CC(=O)N[C@H](C(=O)N[C@@H](CO)C(=O)N[C@@H](Cc1ccccc1)C(=O)N[C@]1(C)CCCCCCC=CCCC[C@@](C)(C(=O)NCCCCCC(=O)N[C@@H](CCCCN)C(N)=O)NC(=O)[C@H](CC(C)C)NC(=O)[C@H](CC(C)C)NC(=O)[C@H](C)NC(=O)[C@H](Cc2c[nH]c3ccccc23)NC(=O)[C@H](Cc2ccc(O)cc2)NC(=O)[C@H](CCC(=O)O)NC1=O)[C@@H](C)O ... fulfilled
CC(=O)N[C@H](C(=O)N[C@@H](CO)C(=O)N[C@@H](CC(C)C)C(=O)N[C@]1(C)CCCCCCC=CCCC[C@@](C)(C(N)=O)NC(=O)[C@H](Cc2c[nH]c3ccccc23)NC(=O)[C@H](CC(C)C)NC(=O)[C@H](C)NC(=O)[C@H](Cc2ccccc2)NC(=O)[C@H](Cc2ccc(O)cc2)NC(=O)[C@H](CCC(=O)O)NC1=O)[C@@H](C)O [MP-2040] (Ac-TSL[R8]EYFALW[S5]-NH2; staple 4-11) ... not fulfilled
CC(=O)N[C@H](C(=O)N[C@@H](CO)C(=O)N[C@@H](Cc1ccccc1)C(=O)N[C@]1(C)CCCCCCC=CCCC[C@@](C)(C(=O)N[C@@H](CO)C(=O)N[C@@H](C)C(=O)N[C@@H](C)C(=O)N[C@@H](CCC(=O)O)C(N)=O)NC(=O)[C@H](CC(C)C)NC(=O)[C@H](CC(C)C)NC(=O)[C@H](C)NC(=O)[C@H](Cc2c[nH]c3ccccc23)NC(=O)[C@H](Cc2ccc(O)cc2)NC(=O)[C@H](CCC(=O)O)NC1=O)[C@@H](C)O ... fulfilled
CC(=O)N[C@H](C(=O)N[C@@H](CO)C(=O)N[C@@H](Cc1ccccc1)C(=O)N[C@]1(C)CCCCCCC=CCCC[C@@](C)(C(N)=O)NC(=O)[C@H](CC(C)(C)C)NC(=O)[C@H](CC(C)C)NC(=O)[C@H](C)NC(=O)[C@H](Cc2c[nH]c3ccccc23)NC(=O)[C@H](Cc2ccc(O)cc2)NC(=O)[C@H](CCC(=O)O)NC1=O)[C@@H](C)O [MP-149] (Ac-TSF[R8]EYWAL[tBuAla][S5]-NH2; staple 4-11) ... not fulfilled

Turning to the following molecule.
Exam item: Dear colleague, could you confirm whether LDH: Cytotoxicity assay % Effect of CC(=O)N[C@@H](CCN)C(=O)NCCCCCC(=O)N[C@H](C(=O)N[C@@H](CO)C(=O)N[C@@H](Cc1ccccc1)C(=O)N[C@]1(C)CCCCCCC=CCCC[C@@](C)(C(=O)N[C@@H](CCC(=O)O)C(=O)N[C@@H](CC(N)=O)C(=O)N[C@@H](Cc2ccccc2)C(N)=O)NC(=O)[C@H](CC(C)C)NC(=O)[C@H](CC(C)C)NC(=O)[C@H](C)NC(=O)[C@H](Cc2c[nH]c3ccccc23)NC(=O)[C@H](Cc2ccc(O)cc2)NC(=O)[C@H](CCC(=O)O)NC1=O)[C@@H](C)O falls below 20%? Thanks.
Marked response: fulfilled
